assay: stimulators of insulin release from INS-1E, primary screen, cell-based, 5 mM glucose, NPC library (AID 1117329); conditions: rat INS-1E insulin secretion, at 10 µM, stronger effect = higher value; note: reference of the scale not given here
Readout: insulin secretion stimulation (%)
Give a bare numeral; the unit % is implied.

Here is how some compounds turned out for insulin secretion stimulation.
>>> df
                                   compound  numeric_readout
0  Nc1cc(C(Cl)=C(Cl)Cl)c(S(N)(=O)=O)cc1S(N)(=O)=O              1.4
1     CN1CCN(C2=Nc3cc(Cl)ccc3Nc3ccccc32)CC1              3.6
2  C#CC1(O)CC[C@H]2[C@@H]3CCC4=CCCC[C@@H]4[C@H]3CC[C@@]21C (some centres not stated)             16.9
3  CC[C@H](c1ccc(O)cc1)[C@@H](CC)c1ccc(O)cc1              1.4
4  CC(=O)OCC(=O)[C@@]1(OC(C)=O)[C@@H](C)C[C@H]2[C@@H]3C[C@H](F)C4=CC(=O)C=C[C@]4(C)[C@@]3(F)[C@@H](O)C[C@@]21C             15.2

// lookup insulin secretion stimulation for CC[N+](CC)(CCNC(=O)C(=O)NCC[N+](CC)(CC)Cc1ccccc1Cl)Cc1ccccc1Cl 0.9

// lookup insulin secretion stimulation for C[C@]12CC[C@@H]3c4ccc(O)cc4C[C@@H](CCCCCCCCCS(=O)CCCC(F)(F)C(F)(F)F)[C@H]3[C@@H]1CC[C@@H]2O (some centres not stated) 5.1

What value of insulin secretion stimulation has been reported for the following compound? NC(=O)N[C@@H](CCC(=O)O)C(=O)O 0.3

Please give the measured insulin secretion stimulation for this compound: Cn1ccc2cc3c(cc21)CCN3C(=O)Nc1cccnc1 -1.4

Can you look up the measured insulin secretion stimulation of COc1cccc2c1C(=O)c1c(O)c3c(c(O)c1C2=O)C[C@@](O)(C(C)=O)C[C@@H]3O[C@H]1C[C@H](N)[C@H](O)[C@H](C)O1 for me? -0.6

What measured insulin secretion stimulation goes with Cc1ccc(Nc2c(F)cccc2Cl)c(CC(=O)O)c1 ? -0.3

I have this compound here, CC(CC=O)CCCC(C)(C)O (configuration not stated) , and I need its recorded insulin secretion stimulation. 0.85

What insulin secretion stimulation value was documented for this compound, C[N+]1(C)CCC(=C(c2ccccc2)c2ccccc2)CC1 ? 3.5

Sample CC(C)COC(=O)c1ccc(N)cc1 — what was its insulin secretion stimulation? -1.9

* * *

assay: inhibition of 3D7 malaria parasite growth – strain 3D7 (AID 2306);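 note: 0% = DMSO wells and 100% = chloroquine plus artemisinin control wells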; details: P. falciparum 3D7 erythrocytic growth, LDH absorbance, 72 h; at 2 µM; stronger effect = higher value
Readout: growth inhibition (%)
# number only, unit % dropped from output

Some solved cases for reference:
>>> df
                                   compound            readout  units_of_measure  numeric_readout
0  CCCC(C)Nc1nc(C)cc(N[C@@H](CC(C)C)C(=O)NCCOc2ccccc2)n1 (some centres not stated)  growth inhibition                 %               93
1  O=C(Nc1cccc(CN2CCN(Cc3ccc(O)cc3)CC2)c1)c1ccc(Cl)c(Cl)c1  growth inhibition                 %              102

Looking for the measured growth inhibition of Fc1ccc2ncc(Cl)c(CCN3CCC(NCc4cc5c(cn4)OCCO5)CC3)c2c1 , can you help? 93

Data request, read-out growth inhibition, for FC(F)(F)c1cccc(C=NNc2nc3ccccc3[nH]2)c1 101

Requested field: growth inhibition. Item: O=C(NC1CCCCC1)N(Cc1cccc(-c2ccc(CNC3CCCC3)cc2)c1)C1CCN(Cc2ccccc2)CC1 98

Return reported growth inhibition; argument: COc1ccc(CNCc2ccc(F)cc2)cc1-c1ccc(OC)c(S(=O)(=O)NCCN2CCCC2)c1 101

Sample COc1ccc2ncc(F)c(CCN3CCC(CNC(=O)C(=O)c4c[nH]c5ccccc45)CC3)c2n1 — what was its growth inhibition? 103

* * *

assay: glucagon-like peptide 1 release enhancers, primary assay, NCI-H716 cell line, NPC library (AID 1117341); settings: NCI-H716 cells, at 10 µM; note: reference of the scale not given here
Active and inactive are the calls of the source.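 Rule for the calls: active = compound raises GLP1 secretion from the human gut endocrine cells, with no numeric limit stated; inactive = the rest.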 Where a SMILES comes first, the peptide text is derived from it. [ ]: non-standard residue; d: D form. The star is where a group is joined. Sta = CC(C)C[C@H](N)[C@@H](O)CC(=O)O; Isovaleryl = CC(C)CC(=O)*
Outcome (select one): active, inactive

These solved cases illustrate the format of a correct answer.
Compound	Label Value
C1CCN2C[C@@H]3C[C@@H](CN4CCCC[C@@H]34)[C@H]2C1	inactive
CC1=C(C(=O)OC(C)C)C(c2cccc([N+](=O)[O-])c2)C(C(=O)OC2CN(C(c3ccccc3)c3ccccc3)C2)=C(N)N1 (stereo not given)	active
N#Cc1cc(NC(=O)C(=O)O)c(Cl)c(NC(=O)C(=O)O)c1	inactive

Test call for this compound, please: Clc1ccc(Cn2c(CN3CCCC3)nc3ccccc32)cc1 inactive

Recorded test call requested for CCCCCCCCCCCCCCC[C@H](O)[C@@H](N)CO inactive

What call does the record list for FCOC(C(F)(F)F)C(F)(F)F ? inactive

State the result this test recorded for CN(C)CCN(Cc1ccc(Cl)cc1)c1ccccn1 . inactive

# fetch the recorded call for CC(C)CC(=O)N[C@H](C(=O)N[C@H](C(=O)N[C@@H](CC(C)C)[C@@H](O)CC(=O)N[C@@H](C)C(=O)N[C@@H](CC(C)C)[C@@H](O)CC(=O)O)C(C)C)C(C)C (Isovaleryl-VV[Sta]A[Sta]-OH) here inactive

Hi, sorry to bother you, what did the test record for Cc1ccc(Cl)c(OCC(O)CNC(C)(C)C)c1 (stereo not given) ? inactive

Could you kindly confirm the outcome this assay logged for NC(=O)NS(=O)(=O)c1ccc(N)cc1 ? inactive

Could you kindly confirm the outcome this assay logged for CC(=O)SC[C@@H](C)C(=O)N1CCC[C@H]1C(=O)N[C@@H](Cc1ccccc1)C(=O)O ? inactive

# fetch the recorded call for Cc1cc(C(C#N)c2ccc(Cl)cc2)c(Cl)cc1NC(=O)c1cc(I)cc(I)c1O (stereo not given) here inactive

Called result for Cc1c(C)c2c(c(C)c1O)CC[C@@](C)(CCC[C@H](C)CCC[C@H](C)CCCC(C)C)O2 inactive

Dear colleague, could you share the recorded outcome for CN1CCC(Nc2ncc3ncnc(Nc4ccc(F)c(Cl)c4)c3n2)CC1 when you have a moment? inactive

* * *

Each entry below carries its reported GLP1 secretion stimulation.
experiment: glucagon-like peptide 1 release enhancers, primary assay, NCI-H716 cell line, NPC library (AID 1117341); settings: NCI-H716 cells, at 10 µM, stronger effect = higher value; note: reference of the scale not given here
Express it in %; write the number only.

Reference set (3 entries):
In [3]: df
Out[3]:
                                   compound  numeric_readout
0                CCCNC(C)(C)COC(=O)c1ccccc1                4
1  O=C(OC1C[C@H]2CC[C@@H](C1)[N+]21CCCC1)C(O)(c1ccccc1)c1ccccc1 (stereo partly specified)             -3.1
2  Cc1ccc(-c2ncc(Cl)cc2-c2ccc(S(C)(=O)=O)cc2)cn1              0.5

So what does the record say about GLP1 secretion stimulation for COc1cc(C)c(C=CC(C)=CC=CC(C)=CC(=O)O)c(C)c1C ? -3.9

Quick check: GLP1 secretion stimulation of O=C(O)Cc1cccc2ccccc12 ? 1.9

Recorded GLP1 secretion stimulation of O=C(O)CN(CCOCCOCCN(CC(=O)O)CC(=O)O)CC(=O)O , please. 1.8

Need GLP1 secretion stimulation of S=C=Nc1ccc(N=C=S)cc1 , thanks. -3.9

What GLP1 secretion stimulation value was documented for this compound, O=C(O)Cn1c(C(=O)Nc2nc(-c3ccccc3Cl)cs2)cc2ccccc21 ? 5.4

Requested field: GLP1 secretion stimulation. Item: CN(C)C(=O)C(CCN1CCC(O)(c2ccc(Cl)cc2)CC1)(c1ccccc1)c1ccccc1 2.9

Entry O=C(O)CCn1c2c(c3ccccc31)C[C@H](NS(=O)(=O)c1ccc(F)cc1)CC2 : reported GLP1 secretion stimulation = ? -0.3

Reported GLP1 secretion stimulation for CC(=O)N(CC(O)CO)c1c(I)c(C(=O)NCCO)c(I)c(C(=O)NCC(O)CO)c1I (stereo unspecified) : what is it? 2.4

* * *

assay: ICB984 medulloblastoma cell growth inhibition, synergistic combos for chromothripsis tumors, cisplatin or BGB combos (AID 1671451); settings: ICB984 medulloblastoma cells, drug combinations, measured here: 5 uM single agent, at 5 µM, stronger effect = higher value;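 note: cells exposed for 96 hours before readout; 0% = vehicle DMSO and 100% = killing by high DMSO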
Readout: inhibition

                           smiles_structure  result
0                  Nc1ccc2cc3ccc(N)cc3nc2c1  -9.35%
1   O=c1c(O)c(-c2ccc(O)c(O)c2)oc2cc(O)ccc12  -7.82%
2  O=c1[nH]c(=O)n([C@H]2C[C@H](O)[C@@H](CO)O2)cc1C(F)(F)F  -19.3%
3        Cc1ccc2nc(N)[nH]c(=O)c2c1Sc1ccncc1  -37.5%

Fill blank: measured inhibition of the compound N=C(N=C(N)N)N1CCOCC1 is ____. -1.94%

What does the record list as inhibition for O=c1cc[nH]c(=O)[nH]1 ? -5.8%

Please give the measured inhibition for this compound: CN1C[C@@H]2C[C@H]1CN2c1cc2c(cc1F)c(=O)c(C(=O)O)cn2C1CC1 -23.8%

// lookup inhibition for CCOC(=O)Nc1ccc(NCc2ccc(F)cc2)nc1N -2.67%

Record request: inhibition value, item CCn1nc(C(=O)O)c(=O)c2cc3c(cc21)OCO3 -20.7%
